Parameter % Inh: see the listing below.
Test system: soluble epoxide hydrolase (sEH)
Experiment: Fluorescent assay for mouse and human soluble epoxide hydrolase (CMNPC substrate)
Assay type: biochemical
Conditions: inhibitor conc. 50000 nM
endpoint label: % Inh (%)

structure_smiles_string=O=C(Nc1cccc(OCCCN2CCOCC2)c1)Nc1c(Cl)cccc1Cl study_system="soluble epoxide hydrolase (sEH)" endpoint_label="% Inh" val=90
structure_smiles_string=O=C(Cc1cccnc1)Nc1cccc(OCCCN2CCOCC2)c1 study_system="soluble epoxide hydrolase (sEH)" endpoint_label="% Inh" val=75
structure_smiles_string=O=C(Nc1cccc(OCCCN2CCOCC2)c1)Nc1c(F)cc(F)cc1F study_system="soluble epoxide hydrolase (sEH)" endpoint_label="% Inh" val=92
structure_smiles_string=O=C(Nc1cccnc1)Nc1cccc(OCCCN2CCOCC2)c1 study_system="soluble epoxide hydrolase (sEH)" endpoint_label="% Inh" val=95

###

The entries below are paired with their reported % Inh.
Tested on: soluble epoxide hydrolase (sEH)
Experiment: Fluorescent assay for mouse and human soluble epoxide hydrolase (CMNPC substrate)
Format: biochemical
Conditions: inhibitor conc. 500 nM
Method: Recombinant mouse sEH (MsEH) and human sEH (HsEH) were produced in a baculovirus expression system as previously reported. […] The expressed proteins were purified from cell lysate by affinity chromatography. […] Protein concentration was quantified using the Pierce BCA assay using bovine serum albumin as the calibrating standard. The IC50s for each inhibitor were according to the following procedure: […] Incubate the plate for 5 minutes in the plate reader at 30° C. […]
endpoint label: % Inh

structure_smiles_string=O=C(Nc1ccccc1)Nc1ccc(OCCCN2CCOCC2)cc1 val=90%
structure_smiles_string=S=C(Nc1cccc(OCCCN2CCOCC2)c1)NC12CC3CC(CC(C3)C1)C2 val=96%
structure_smiles_string=O=C(Cc1ccc(Cl)cc1)Nc1cccc(OCCCN2CCOCC2)c1 val=73%
structure_smiles_string=O=C(CC12CC3CC(CC(C3)C1)C2)Nc1ccc(F)c(OCCCN2CCOCC2)c1 val=93%
structure_smiles_string=O=C(Cc1ccc(OC(F)(F)F)cc1)Nc1cccc(OCCCN2CCOCC2)c1 val=86%
structure_smiles_string=O=C(Cc1ccc(Cl)cc1)Nc1ccc(OCCCN2CCOCC2)cc1 val=72%
structure_smiles_string=O=C(Nc1ccccc1)Nc1ccc(F)c(OCCCN2CCOCC2)c1 val=73%
structure_smiles_string=O=C(Cc1ccc(C(F)(F)F)cc1)Nc1ccc(OCCCN2CCOCC2)cc1 val=83%
structure_smiles_string=O=C(Nc1cccc(OCCCN2CCOCC2)c1)Nc1ccc2c(c1)OCO2 val=91%

###

Each entry below lists one item and its recorded % Inh value.
System: soluble epoxide hydrolase (sEH)
Assay: Fluorescent assay for mouse and human soluble epoxide hydrolase (CMNPC substrate)
Format: biochemical
Conditions: inhibitor conc. 5000 nM
endpoint label: % Inh

compound="O=C(Cc1ccc(F)cc1)Nc1cccc(OCCCN2CCOCC2)c1 [Compound 11]" endpoint_label="% Inh" val=85%
compound="O=C(Nc1cccc(OCCCN2CCOCC2)c1)C1CCCCC1 [Compound 56]" endpoint_label="% Inh" val=94%
compound="O=C(Cc1ccc(F)c(F)c1)Nc1cccc(OCCCN2CCOCC2)c1 [Compound 19]" endpoint_label="% Inh" val=92%

###

endpoint label: melting point

compound="O=C(Nc1ccc(Oc2ccccc2)cc1)Nc1ccc(C(F)(F)F)cc1 [Compound 39]" val="211 to 213 °C"
compound="O=C(Nc1ccc(Oc2ccc(C(=O)O)cc2)cc1)Nc1cccc(C(F)(F)F)c1 [Compound 67]" val="318 °C"
compound="O=C(Nc1ccc(C(F)(F)F)cc1)Nc1cccc(Oc2ccccc2)c1 [Compound 40]" val="178 to 181 °C"
compound="O=C(Nc1cccc(OCc2ccccc2)c1)NC12CC3CC(CC(C3)C1)C2 [Compound 57]" val="232 to 235 °C"
compound="O=C(Nc1cccc(Oc2ccc(C(=O)O)cc2)c1)NC12CC3CC(CC(C3)C1)C2 [Compound 68]" val="152 to 154 °C"
